target: human H4 (Homo sapiens, UniProt Q9H3N8); construct: host or cells: CHO-K1; test: In vitro histamine receptor cell-based assay (aequorin bioluminescence), H4 antagonism; details: CHO-K1 cells expressing human H4, aequorin and Gα16; histamine at EC80; read-out: H4 Antagonist EC50
Sequence (Q9H3N8 whole entry): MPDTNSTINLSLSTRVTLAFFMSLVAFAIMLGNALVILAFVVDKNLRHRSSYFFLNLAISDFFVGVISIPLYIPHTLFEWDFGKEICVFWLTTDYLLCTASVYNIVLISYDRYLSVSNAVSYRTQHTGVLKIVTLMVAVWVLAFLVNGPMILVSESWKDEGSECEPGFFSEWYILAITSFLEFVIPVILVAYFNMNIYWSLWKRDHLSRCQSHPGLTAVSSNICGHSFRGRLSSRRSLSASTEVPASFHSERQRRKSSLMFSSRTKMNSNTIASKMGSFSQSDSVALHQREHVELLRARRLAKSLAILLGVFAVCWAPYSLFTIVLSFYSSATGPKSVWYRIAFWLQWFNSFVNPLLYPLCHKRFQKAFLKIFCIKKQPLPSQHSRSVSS
Where a name gives a salt, the structure may show the parent alone.
measured-quantity: EC50

[[record]]
compound = "Cc1nc2c(N3CCN(C)CC3)nc3ccc(C(F)(F)F)cc3c2o1"
measured_quantity = "EC50"
value_observed = "< 10 µM"

[[record]]
compound = "Cc1cc2c(cc1F)nc(N1CCNCC1)c1nncn12"
measured_quantity = "EC50"
value_observed = "> 10 µM"

[[record]]
compound = "FC(F)(F)Oc1ccc2nc(N3CCNCC3)c3nncn3c2c1"
measured_quantity = "EC50"
value_observed = "< 10 µM"

[[record]]
compound = "Brc1ccc2nc(N3CCNCC3)c3nncn3c2c1"
measured_quantity = "EC50"
value_observed = "< 10 µM"

[[record]]
compound = "CN1CCN(c2nc3cc(F)c(Cl)cc3n3nnnc23)CC1"
measured_quantity = "EC50"
value_observed = "< 10 µM"

[[record]]
compound = "Fc1cc(Cl)cc2c1nc(N1CCNCC1)c1nncn12"
measured_quantity = "EC50"
value_observed = "< 10 µM"

[[record]]
compound = "CC(C)c1ccc2nc(N3CCN(C)CC3)c3nncn3c2c1"
measured_quantity = "EC50"
value_observed = "< 10 µM"

[[record]]
compound = "Brc1ccc2c(c1)nc(N1CCNCC1)c1nnnn12 [Example 194, hydrochloride]"
measured_quantity = "EC50"
value_observed = "< 10 µM"

[[record]]
compound = "Cc1nc2c3cc(C(F)(F)F)ccc3nc(N3CCNCC3)n2n1"
measured_quantity = "EC50"
value_observed = "< 10 µM"

[[record]]
compound = "COc1ccc2nc(N3CCNCC3)n3nc(C)nc3c2c1"
measured_quantity = "EC50"
value_observed = "> 10 µM"

[[record]]
compound = "FC(F)(F)c1cc2c(cc1Cl)nc(N1CCNCC1)c1nncn12"
measured_quantity = "EC50"
value_observed = "< 10 µM"

[[record]]
compound = "CN1CCCN(c2nc3ccc(Cl)cc3n3cnnc23)CC1"
measured_quantity = "EC50"
value_observed = "< 10 µM"

[[record]]
compound = "CN1CCN(c2nc3ccc(Cl)cc3c3ccsc23)CC1"
measured_quantity = "EC50"
value_observed = "< 10 µM"

[[record]]
compound = "Cc1nc2c(N3CCNCC3)nc3ccc(Cl)cc3c2[nH]1"
measured_quantity = "EC50"
value_observed = "> 10 µM"

[[record]]
compound = "CN1CCN(c2nc3cc(Cl)c(F)cc3n3cnnc23)CC1"
measured_quantity = "EC50"
value_observed = "< 10 µM"

[[record]]
compound = "CN1CCN(c2nc3cc(F)c(Br)cc3n3cnnc23)CC1"
measured_quantity = "EC50"
value_observed = "< 10 µM"

[[record]]
compound = "Cc1nc2c3cc(C(F)(F)F)cc(F)c3nc(N3CCN(C)CC3)n2n1.Cl [Example 127, hydrochloride]"
measured_quantity = "EC50"
value_observed = "< 10 µM"

[[record]]
compound = "CCOC(=O)c1nc2c(N3CCN(C)CC3)nc3ccc(Cl)cc3n2n1"
measured_quantity = "EC50"
value_observed = "> 10 µM"

[[record]]
compound = "Cc1nc2c3cc(Cl)c(Cl)cc3nc(N3CCNCC3)n2n1"
measured_quantity = "EC50"
value_observed = "< 10 µM"

